Listing: OD@1 µg/mL of selected binders
# EXPERIMENTAL TARGET: T1, full length human tau SEQ ID NO: 01 (human, UniProt P10636 1-758)
# T1 construct: not phosphorylated; also called tau protein; non-phosphorylated full-length human tau
# T1 sequence (P10636 other isoform, or with tags, fused parts or gaps limits assumed): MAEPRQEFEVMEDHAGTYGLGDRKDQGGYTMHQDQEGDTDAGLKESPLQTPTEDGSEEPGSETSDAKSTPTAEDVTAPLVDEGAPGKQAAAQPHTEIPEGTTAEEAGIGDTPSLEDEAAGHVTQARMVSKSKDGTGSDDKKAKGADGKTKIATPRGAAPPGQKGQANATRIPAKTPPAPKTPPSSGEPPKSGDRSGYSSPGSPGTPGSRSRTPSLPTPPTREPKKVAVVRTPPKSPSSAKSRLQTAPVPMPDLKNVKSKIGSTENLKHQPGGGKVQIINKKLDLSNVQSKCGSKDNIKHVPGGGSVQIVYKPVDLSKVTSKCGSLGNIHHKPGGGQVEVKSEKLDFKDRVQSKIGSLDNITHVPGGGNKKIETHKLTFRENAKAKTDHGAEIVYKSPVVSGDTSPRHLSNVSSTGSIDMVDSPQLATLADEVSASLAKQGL
# TEST: ELISA
OBSERVABLE: OD@1 µg/mL (OD)

VH32/VL22 (antibody, V domains shown, full size IgG) VH: EVQVLESGGGLVQPGGSLRLSCAVSGFSLSSNAINWVRQAPGKGLEWVGYIAVSGNTYYASWAKGRFTISRDNSKNTVYLQMNSLRAEDTAVYYCGKSNIWGQGTLVTVSS VL: AQVMTQSPSSLSASVGDRVTITCRSSQSVRTNRLAWFQQKPGQPPKRLIYSASTLDYGVPSRFSGSGSGTEFTLTISSLQPEDFATYYCLGYFDSSADIVAFGGGTKVEIK = 0.14
VH35H5/VL49G1 (antibody, V domains shown, IgG captured via anti-human Fc; also called antibody 2) VH: EVQVLESGGGLVQPGGSLRLSCAVSGISLSSNAINWVRQAPGKGLEWVGYIAVSGNTYYASWAKGRFTISRDNSKNTVYLQMNSLRAEDTAVYYCGKSNIWGQGTLVTVSS VL: AQVMTQSPSSLSASVGDRVTITCRSSQSVRSNKLAWFQQKPGQPPKRLIYSASNLDYGVPSRFSGSGSGTEFTLTISSLQPEDFATYYCLGYFDSSADIVAFGGGTKVEIK = 0.04
VH76A6/VL35G4 (antibody, V domains shown, IgG captured via anti-human Fc) VH: EVQVLESGGGLVQPGGSLRLSCAVSGFSLSNSAINWVRQAPGKGLEWVGYIAVSGNTYYASWAKGRFTISRDNSKNTVYLQMNSLRAEDTAVYYCGKSNIWGQGTLVTVSS VL: AQVMTQSPSSLSASVGDRVTITCRSSQSVRTNKLAWFQQKPGQPPKRLIYSASTLDFGVPSRFSGSGSGTEFTLTISSLQPEDFATYYCAGYFEAPADIVAFGGGTKVEIK = 0.04
VH00/VL00 (antibody, V domains shown, variable domains of rabbit mAb 086; also called VH00 with VL00 (rabbit antibody); parental rabbit antibody) VH: QSVEESGGRLVTPGTPLTLTCTVSGFSLSSNAINWVRQAPGKGLEWIGYIAVSGNTYYASWAKGRFTISKASTTVDLKMTSPTAEDTGTYFCGKSNIWGPGTLVTVSL VL: AQVLTQTTSPVSAAVGSTVTISCQSSQSVRTNKLAWFQQKPGQPPKRLIYSASTLDFGVPSRFSASGSGTQFTLTISDVQCDDAATYYCLGYFDCSIADCVAFGGGTEVVVK = 0.04
VH32/VL4G1 (antibody, V domains shown) VH: EVQVLESGGGLVQPGGSLRLSCAVSGFSLSSNAINWVRQAPGKGLEWVGYIAVSGNTYYASWAKGRFTISRDNSKNTVYLQMNSLRAEDTAVYYCGKSNIWGQGTLVTVSS VL: AQVMTQSPSSLSASVGDRVTITCRSSQSVRTNKLAWFQQKPGQPPKRLIYSASTLDFGVPSRFSGSGSGTEFTLTISSLQPEDFATYYCLGYFDSPADIVAFGGGTKVEIK = 0.04

Reference source: patent US20180079804A1
